- EXPERIMENTAL TARGET: human CD33 N297A (human, UniProt P20138 18-364)
- Sequence (P20138 18-364 N297A limits assumed): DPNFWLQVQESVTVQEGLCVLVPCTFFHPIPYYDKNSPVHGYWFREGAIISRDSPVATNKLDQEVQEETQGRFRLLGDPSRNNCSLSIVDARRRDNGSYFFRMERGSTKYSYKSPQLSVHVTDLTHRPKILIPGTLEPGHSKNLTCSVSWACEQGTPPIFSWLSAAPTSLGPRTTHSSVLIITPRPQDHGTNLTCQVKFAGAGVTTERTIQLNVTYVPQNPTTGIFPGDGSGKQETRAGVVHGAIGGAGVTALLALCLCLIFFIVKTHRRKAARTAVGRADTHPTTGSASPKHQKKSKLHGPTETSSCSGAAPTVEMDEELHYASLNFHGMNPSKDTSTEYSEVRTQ
- PROTOCOL DETAILS: alanine scan, flow cytometry, HEK293-T;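 further: antibody binding to each alanine-substituted CD33 mutant expressed transiently in HEK293-T, read as fluorescence minus background, mean of duplicates, relative to wild-type CD33 set as 100%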
METRIC: Mean % WT Binding (% WT binding)
Numeric answer only, unit % WT binding assumed.

# count of solved cases: 3
q: Name the recorded Mean % WT Binding of the item Refmab #3 (antibody, V domains shown, The alanine scan used IgG or Fab) VH: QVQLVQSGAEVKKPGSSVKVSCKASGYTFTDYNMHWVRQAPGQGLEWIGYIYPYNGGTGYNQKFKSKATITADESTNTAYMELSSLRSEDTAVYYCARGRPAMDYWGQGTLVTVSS VL: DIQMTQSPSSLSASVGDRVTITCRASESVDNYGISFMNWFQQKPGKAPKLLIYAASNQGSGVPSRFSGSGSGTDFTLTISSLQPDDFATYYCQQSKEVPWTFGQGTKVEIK in your answer.
a: 133

q: Name the recorded Mean % WT Binding of the item Refmab #1 (antibody, V domains shown, The alanine scan used IgG or Fab; also called hP67.6) VH: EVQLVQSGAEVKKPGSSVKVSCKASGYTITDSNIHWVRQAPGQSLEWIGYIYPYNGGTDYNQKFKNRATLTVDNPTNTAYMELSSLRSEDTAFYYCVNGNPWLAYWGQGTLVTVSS VL: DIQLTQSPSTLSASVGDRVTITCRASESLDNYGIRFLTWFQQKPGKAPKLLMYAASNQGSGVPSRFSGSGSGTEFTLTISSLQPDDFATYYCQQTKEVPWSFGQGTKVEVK in your answer.
a: 94.9

q: Name the recorded Mean % WT Binding of the item Refmab #2 (antibody, V domains shown, The alanine scan used IgG or Fab) VH: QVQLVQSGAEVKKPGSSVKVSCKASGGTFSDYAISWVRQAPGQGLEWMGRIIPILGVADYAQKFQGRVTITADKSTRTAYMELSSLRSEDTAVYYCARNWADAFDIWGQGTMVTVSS VL: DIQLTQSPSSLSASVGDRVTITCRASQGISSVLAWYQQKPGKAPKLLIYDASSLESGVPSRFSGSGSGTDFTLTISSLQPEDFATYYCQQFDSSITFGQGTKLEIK in your answer.
a: 108

Next:
q: Name the recorded Mean % WT Binding of the item Refmab #4 (antibody, V domains shown, The alanine scan used IgG or Fab) VH: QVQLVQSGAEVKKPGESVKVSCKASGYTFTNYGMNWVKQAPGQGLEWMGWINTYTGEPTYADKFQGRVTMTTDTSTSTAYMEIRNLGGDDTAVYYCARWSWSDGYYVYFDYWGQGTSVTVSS VL: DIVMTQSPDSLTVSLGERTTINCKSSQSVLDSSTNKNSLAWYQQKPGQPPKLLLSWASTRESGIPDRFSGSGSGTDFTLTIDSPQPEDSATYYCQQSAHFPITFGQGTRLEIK in your answer.
a: 88.9

Ref: patent US20260242735A1
